// provenance: ChEMBL document CHEMBL1641381

- Test system: Mus musculus
- procedure-summary: Antioxidant activity agains CCl4-induced hepatitis mouse model at 20 mg/kg, po (untreated control = 0%)
- Type: functional
The threshold is 40%. Values of Activity beneath it are tagged criterion met; values meeting or exceeding it are tagged criterion not met.

The examples below pair each entry with its known result.
molecule	target-or-system	group-label
C=C(C)[C@@H]1CC[C@]2(C(=O)Nc3ccc(-c4cn(-c5ccc(OC)cc5)nn4)cc3)CC[C@]3(C)[C@H](CC[C@@H]4[C@@]5(C)CCC(=O)C(C)(C)[C@@H]5CC[C@]43C)[C@@H]12	Mus musculus	criterion not met
C=C(C)[C@@H]1CC[C@]2(C(=O)Nc3ccc(-c4cn(CCCCCC)nn4)cc3)CC[C@]3(C)[C@H](CC[C@@H]4[C@@]5(C)CCC(=O)C(C)(C)[C@@H]5CC[C@]43C)[C@@H]12	Mus musculus	criterion met
C=C(C)[C@@H]1CC[C@]2(C(=O)Nc3ccc(-c4cn(-c5ccc(C(C)=O)cc5)nn4)cc3)CC[C@]3(C)[C@H](CC[C@@H]4[C@@]5(C)CCC(=O)C(C)(C)[C@@H]5CC[C@]43C)[C@@H]12	Mus musculus	criterion not met
C=C(C)[C@@H]1CC[C@]2(C(=O)Nc3ccc(-c4cn(Cc5ccccc5)nn4)cc3)CC[C@]3(C)[C@H](CC[C@@H]4[C@@]5(C)CCC(=O)C(C)(C)[C@@H]5CC[C@]43C)[C@@H]12	Mus musculus	criterion not met

Next molecule, please.
Asked: Could you please tell me whether Activity recorded for O=C1c2c(O)cc(O)cc2O[C@H](c2ccc(O)c(O)c2)[C@H]1O [(+)-TAXIFOLIN] is less than 40%?
Given back: criterion not met
